Entries and their z-score
experiment: E. coli acrAB mutant growth effects, primary screen, E. coli filamentation inducers, strain DRC39, OD650, 24 h (AID 1178); conditions: higher = more signal, called active from +8 up or from −8 down;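 further: growth measured as culture turbidity by optical density at 650 nm; test concentration not given here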
metric: z-score

[[record]]
compound = "[N-]=[N+]=NCc1ccccc1C[C@]1(C(=O)O)N=C(c2ccc(OCCCO)cc2)O[C@H]1c1ccccc1CN=[N+]=[N-]"
measurement = 0.279

[[record]]
compound = "O=C1O[C@@H](c2ccccc2)[C@@H](c2ccccc2)N2[C@@H](c3ccc(OCCO)cc3)[C@]3(C(=O)Nc4ccc(C#CC5=CCCCC5)cc43)[C@@H](C(=O)O)[C@H]12"
measurement = 0.448

[[record]]
compound = "C=CCNC(=O)[C@@H]1[C@H]2C(=O)O[C@H](c3ccccc3)[C@H](c3ccccc3)N2[C@H](c2ccccc2OCCO)[C@@]12C(=O)Nc1ccc(C#CC3=CCCCC3)cc12"
measurement = -0.125

[[record]]
compound = "[N-]=[N+]=Nc1ccccc1C[C@]1(C(=O)NCCN2CCOCC2)N=C(c2ccc(OCCCO)cc2)O[C@H]1c1ccccc1"
measurement = 0.148

[[record]]
compound = "COCCOC(=O)N1C(=O)[C@@]2(c3cc(C#CCNC(N)=O)ccc31)[C@H](c1ccc(O)cc1)N1[C@H](c3ccccc3)[C@H](c3ccccc3)OC(=O)[C@H]1[C@@H]2C(=O)Nc1nc2ccccc2s1"
measurement = 2.74

[[record]]
compound = "COc1ccc(C#Cc2ccc3c(c2)[C@]2(C(=O)N3)[C@H](C(=O)NC[C@H](O)c3ccccc3)[C@H]3C(=O)O[C@H](c4ccccc4)[C@H](c4ccccc4)N3[C@@H]2c2ccccc2OCCO)cc1"
measurement = -0.444

[[record]]
compound = "CC(C)CNC(=O)[C@@H]1c2ccccc2C(=O)N(Cc2cc(C(F)(F)F)cc(C(F)(F)F)c2)[C@H]1c1ccc(CO)cc1"
measurement = 0.898

[[record]]
compound = "CC(C)(C)N1CC=CC23O[C@@H]4/C=C\\CCCOC(=O)C4[C@H]2C(=O)N(CCO)[C@@H]3C1=O (some centres not stated)"
measurement = -0.599

[[record]]
compound = "Cc1ccc(S[C@]2(C(=O)NCC(C)C)CC(=O)N(Cc3ccccc3Cl)[C@@H]2c2ccc(CO)cc2)cc1"
measurement = -0.115

[[record]]
compound = "CC(C)C[C@@H]1NC(=O)[C@H]2C[C@@H](C(=O)NCCCCCNC(=O)CS)[C@@H](c3cccc(OCCO)c3)N2C1=O"
measurement = 0.346

[[record]]
compound = "CCOC(=O)C1=CC[C@@H](c2ccccc2Cl)N(S(=O)(=O)c2ccc(C)cc2)C1"
measurement = -0.203

[[record]]
compound = "CCCN1C(=O)[C@@]2(CCC(=O)OC(C)(C)C)N=C(c3ccc(OCCCO)cc3)O[C@H]2c2ccccc21"
measurement = 0.923

[[record]]
compound = "COC(=O)[C@@]1(Cc2ccccc2)N=C(c2ccc(OCCCO)cc2)O[C@H]1c1ccccc1N=[N+]=[N-]"
measurement = 0.368

[[record]]
compound = "CC(C)(C)OC(=O)CC[C@]1(C(=O)N2CCCCC2)N=C(c2ccc(OCCCO)cc2)O[C@H]1c1ccccc1N=[N+]=[N-]"
measurement = 1.82

[[record]]
compound = "CC1CC/C=C\\[C@H]2OC34C=CCN(Cc5ccccc5)C(=O)[C@H]3N(CCCCCO)C(=O)[C@@H]4C2C(=O)O1 (some centres not stated)"
measurement = 0.443

[[record]]
compound = "Cc1ccc([C@H]2C(C(=O)O)=C[C@@H](C)N2S(=O)(=O)c2ccc(C)cc2)cc1"
measurement = -0.654

[[record]]
compound = "C=CCC(OC(C)=O)[C@@H]1[C@@H](N(Cc2cccc3ccccc23)C(=O)c2ccc(C)cc2)c2cc(OCCCO)ccc2N1C(=O)Cc1ccc(OC)cc1 (some centres not stated)"
measurement = 1.59

[[record]]
compound = "C=CC[C@@]1(C(=O)N2CCOCC2)N=C(c2ccc(OCCCO)cc2)O[C@@H]1c1ccccc1N=[N+]=[N-]"
measurement = 0.992

[[record]]
compound = "COc1ccc([Si](C)(C)[C@@H]2[C@@H](CCn3cc([C@H](O)c4ccccc4)nn3)O[C@]3(C(=O)N(Cc4ccc(N5C(=O)c6cccc7cccc5c67)cc4)c4ccccc43)[C@H]2C)cc1"
measurement = 0.954

[[record]]
compound = "O=C/C=C/c1ccc2c(c1)OCO2"
measurement = -1.34

[[record]]
compound = "CCC[C@@H]1C=C(C(=O)O)[C@H](c2ccc(C)cc2)N1S(=O)(=O)c1ccc(C)cc1"
measurement = -0.591

[[record]]
compound = "COC(=O)C(CC#Cc1ccc2c(c1)[C@]1(C(=O)N2)[C@H](C(=O)NC[C@H](O)c2ccccc2)[C@H]2C(=O)O[C@H](c3ccccc3)[C@H](c3ccccc3)N2[C@@H]1c1ccc(OCCO)cc1)C(=O)OC"
measurement = 0.389


###

test system: Plasmodium falciparum Sir2 (PF13_0152, Sir2A); assay: pfSir2 binders on small-molecule microarrays, primary screen, biochemical, small-molecule microarray, 635 nm fluorescence (AID 1098); conditions: small-molecule microarray binding, fluorescence 635 nm; higher = more signal;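 further: score merges spot fluorescence intensity with its signal-to-noise ratio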
Assign class by composite z-score: not lower than 0.7 means rule met; lower than 0.7 means rule not met.

[[record]]
compound = "CCN(CC)c1ccc(N2CC=CC34O[C@@H]5C=CCCOC(=O)C5[C@H]3C(=O)N(CCCCCO)[C@@H]4C2=O)cc1 (stereo not given in full)"
class_assignment = "rule not met"

[[record]]
compound = "O=c1oc(-c2ccccc2)nc2cc(Br)ccc12"
class_assignment = "rule not met"

[[record]]
compound = "COC(=O)[C@@]1(Cc2ccccc2)[C@H]2c3cc(C(=O)N4CCCC4)n(Cc4ccc(C)o4)c3C[C@H]2CN1C(=O)c1ccccc1"
class_assignment = "rule met"

[[record]]
compound = "CC(=O)Nc1cc(Br)ccc1C(=O)O"
class_assignment = "rule met"

[[record]]
compound = "CCCCCCc1nc(CCCc2cc3c(c(CCCCCC)n2)[Si](C(C)C)(C(C)C)OC3)cc2c1[Si](C(C)C)(C(C)C)OC2"
class_assignment = "rule not met"

[[record]]
compound = "Cc1ccc(S[C@]2(C(=O)NCC(C)C)CC(=O)N(Cc3ccccc3)[C@@H]2c2ccc(CO)cc2I)cc1"
class_assignment = "rule met"

[[record]]
compound = "COc1ccc(CCNC(=O)[C@@]2(Sc3ccc(C)cc3)CC(=O)N(Cc3ccccc3Cl)[C@@H]2c2ccc(CO)cc2I)cc1"
class_assignment = "rule not met"

[[record]]
compound = "CCOC(=O)C[C@H]1[C@H](OC(=O)c2ccccc2-c2ccccc2)[C@@H](NC(=O)c2ccc3ccccc3c2)c2cc(OCCCO)ccc2N1C(=O)c1ccc2ccccc2n1"
class_assignment = "rule not met"

[[record]]
compound = "CCOC(=O)C1=CCC(C(C)(C)C)N(S(=O)(=O)c2ccc(C)cc2)C1 (stereo not given)"
class_assignment = "rule met"

[[record]]
compound = "COCCOC(=O)N1C(=O)[C@@]2(c3ccccc31)[C@H](C(=O)Nc1nc3ccccc3s1)[C@H]1C(=O)O[C@H](c3ccccc3)[C@H](c3ccccc3)N1[C@@H]2c1ccc(OCCO)cc1"
class_assignment = "rule met"

[[record]]
compound = "COC(=O)[C@@]1(Cc2ccccc2N=[N+]=[N-])COC(c2ccc(OCCCO)cc2)=N1"
class_assignment = "rule met"

[[record]]
compound = "COc1cccc(C(=O)O[C@H]2CC[C@]3(C)C4=C(CCC3C2(C)C)[C@]2(C)CC[C@H]([C@H](C)CCCC(C)C)[C@@]2(C)CC4)c1 (stereo not given in full)"
class_assignment = "rule not met"

[[record]]
compound = "O=C1N(CCS(=O)(=O)c2ccccc2)Cc2ccccc2C[C@]12N=C(c1ccc(OCCCO)cc1)O[C@@H]2c1ccccc1"
class_assignment = "rule met"

[[record]]
compound = "CC(C)C[C@@H]1NC(=O)[C@H]2C[C@@H](C(=O)NCCCCCNC(=O)CS)[C@@H](c3cccc(OCCO)c3)N2C1=O"
class_assignment = "rule met"

[[record]]
compound = "[N-]=[N+]=NCc1ccccc1C[C@@]1(C(=O)NCC(O)CO)N=C(c2ccc(OCCCO)cc2)O[C@@H]1c1ccccc1CN=[N+]=[N-] (stereo not given in full)"
class_assignment = "rule met"

[[record]]
compound = "O=C(CCN1CCOCC1)c1cccc(O)c1"
class_assignment = "rule met"

[[record]]
compound = "O=C(CS)NCCCCCCNC(=O)[C@H]1C[C@H]2C(=O)NCC(=O)N2[C@H]1c1ccc(O)cc1"
class_assignment = "rule not met"

[[record]]
compound = "O=C(OCCF)C1=CCC(c2cccc(Cl)c2)O1 (stereo not given)"
class_assignment = "rule not met"


###

Entries and their z-score
biological target: NADPH oxidase 5 (Homo sapiens) (UniProt Q96PH1); assay: NOX5-dependent H2O2 signal modulators, primary screen, NOX inhibitor project, cell-based, HEK293-NOX5, Amplex Red fluorescence (AID 1161); settings: HEK293-NOX5, ionomycin, 45 min, higher = more signal
Sequence (Q96PH1 whole entry, looked up): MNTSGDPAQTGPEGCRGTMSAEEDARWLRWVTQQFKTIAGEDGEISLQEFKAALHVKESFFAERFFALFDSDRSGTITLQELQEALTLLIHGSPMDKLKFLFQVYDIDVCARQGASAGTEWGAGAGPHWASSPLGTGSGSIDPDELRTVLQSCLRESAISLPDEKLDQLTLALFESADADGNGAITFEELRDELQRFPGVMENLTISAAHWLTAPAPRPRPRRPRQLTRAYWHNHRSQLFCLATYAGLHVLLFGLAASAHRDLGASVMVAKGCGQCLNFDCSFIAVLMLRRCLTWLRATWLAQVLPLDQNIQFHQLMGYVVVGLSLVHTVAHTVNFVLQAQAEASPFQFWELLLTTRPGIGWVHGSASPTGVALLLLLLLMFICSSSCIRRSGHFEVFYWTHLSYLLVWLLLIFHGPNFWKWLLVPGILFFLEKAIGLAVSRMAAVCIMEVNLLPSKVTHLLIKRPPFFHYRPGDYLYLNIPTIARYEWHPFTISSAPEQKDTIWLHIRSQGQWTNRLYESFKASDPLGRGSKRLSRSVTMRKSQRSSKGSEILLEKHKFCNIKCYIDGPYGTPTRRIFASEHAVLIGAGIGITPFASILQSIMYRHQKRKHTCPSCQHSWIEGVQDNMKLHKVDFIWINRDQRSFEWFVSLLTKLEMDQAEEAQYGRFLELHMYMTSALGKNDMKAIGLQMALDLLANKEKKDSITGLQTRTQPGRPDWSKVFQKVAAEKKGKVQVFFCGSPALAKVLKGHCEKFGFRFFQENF
metric: z-score

[[record]]
molecule = "C=C(COC)C(=O)CC[C@H](OC(C)=O)c1cccc(OCCO)c1"
metric = "z-score"
measurement = -1.46

[[record]]
molecule = "Cc1ccccc1C(O)C1C=CC2C(=O)N(C)C(=O)C2N1Nc1ccccc1 (stereo not given)"
metric = "z-score"
measurement = -2.72

[[record]]
molecule = "[N-]=[N+]=Nc1ccccc1C[C@]1(C(=O)NCCN2CCOCC2)N=C(c2ccc(OCCCO)cc2)O[C@H]1c1ccccc1"
metric = "z-score"
measurement = -1.32

[[record]]
molecule = "COc1ccc(C(=O)Nc2cccc(CN3C(=O)[C@]4(O[C@H](CC(=O)N5CCC[C@H]5CO)[C@@H]([Si](C)(C)c5ccc(OC)cc5)[C@@H]4C)c4ccccc43)c2)cc1"
metric = "z-score"
measurement = 4.27

[[record]]
molecule = "COC(=O)[C@@]1(Cc2ccccc2N=[N+]=[N-])COC(c2ccc(OCCCO)cc2)=N1"
metric = "z-score"
measurement = -1.63

[[record]]
molecule = "CCN(CC)c1ccc(N2CC=CC34O[C@@H]5C=CCCOC(=O)C5[C@H]3C(=O)N(CCCCCO)[C@@H]4C2=O)cc1 (stereo not given in full)"
metric = "z-score"
measurement = 0.895

[[record]]
molecule = "COCCOC(=O)N1C(=O)[C@@]2(c3ccccc31)[C@H](C(=O)NC[C@H](O)c1ccccc1)[C@H]1C(=O)O[C@H](c3ccccc3)[C@H](c3ccccc3)N1[C@@H]2c1ccc(OCCO)cc1"
metric = "z-score"
measurement = -0.739

[[record]]
molecule = "COc1ccc(C#Cc2ccc3c(c2)[C@]2(C(=O)N3)[C@H](c3ccc(O)cc3)N3[C@H](c4ccccc4)[C@H](c4ccccc4)OC(=O)[C@H]3[C@@H]2C(=O)N2CCCCCCC2)cc1"
metric = "z-score"
measurement = 0.855

[[record]]
molecule = "CCOC(=O)C1=CCC(c2ccc([N+](=O)[O-])cc2)N(S(=O)(=O)c2ccc(C)cc2)C1 (stereo not given)"
metric = "z-score"
measurement = 0.739

[[record]]
molecule = "N#Cc1ccc(NN2C(C(O)c3ccc([N+](=O)[O-])cc3)C=CC3C(=O)N(c4ccccc4)C(=O)C32)cc1 (stereo not given)"
metric = "z-score"
measurement = -3.56

